Source listed as patent US20190248902A1.

SYSTEM_UNDER_TEST: T1, recombinant, soluble human ASGR-1 (human, UniProt P07306 62-291)
T1 construct: biotinylated in the binning assay; also called soluble huASGR-1; Soluble ASGR-1 (Amgen)
T1 sequence: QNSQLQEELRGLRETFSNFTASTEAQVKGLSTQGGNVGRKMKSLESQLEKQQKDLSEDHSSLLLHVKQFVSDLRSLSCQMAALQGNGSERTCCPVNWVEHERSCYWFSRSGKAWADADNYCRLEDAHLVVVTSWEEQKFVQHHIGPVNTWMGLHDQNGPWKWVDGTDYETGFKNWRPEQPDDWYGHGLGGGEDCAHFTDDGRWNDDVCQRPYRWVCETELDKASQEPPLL
ASSAY_TEXT: Octet BLI dissociation, pH 5.6 plus calcium
Quick reference: % Change Compared to pH 7.4 + Calcium of the listed items.
A number alone suffices; assume %.

Q: Form field: reported % Change Compared to pH 7.4 + Calcium of 29E2 (antibody, V domains shown, hybridoma mAb) VH: QVQLVESGGGVVQPGRSLRLSCAASGFTFSNCVMHWVRQAPGKGLEWVAVIWYDGSNKYYADSVKGRITISRDNSKNTLYLQMNSLRAEDTAVYYCAREEYSSGWYDYGMDVWGQGTTVTVSS VL: DIQMTQSPSSLSASVGDRVTITCRASQAIRNDLGWYQQRPGKAPKRLIYAASSLQSGVPSRFSGSGSGTEFILTISSLQPEDFATYYCLQHYNYPRSFGQGTKLEIK
A: 25

Q: Same thing, different binder: 5E5 (antibody, V domains shown, hybridoma mAb) VH: QVQLVESGGGVVQPGRSLRLSCAASGFTFSNYVMHWVRQAPGKGLEWVAVIWYDGSNKYYADSVKGRFTISRDNSKNTLYLQMNSLRAEDTAVYYCTREVYSSGWYDYGMDVWGQGTTVTVSS VL: DIQMTQSPSSLSASVGDRVTITCRASQGIRNDLGWYQQKPGKAPKRLIYAASSLQSGVPSRFSGSGSGTEFTLTISSLQPEDFATYYCLQHYSYPRTFGQGTKVEVK
A: 18

Q: Same thing, different binder: 74B2 (antibody, V domains shown, hybridoma mAb) VH: QVQLQQWGAGLLKPSEPLSLTCAVYGGSFSGPYWSWIRQPPGKGLEWIGEINHSGSTNYNPSLTSRVTISVDTSKNQFSLKLTSVTAADSAVYYCARDYGGLDVWGQGTTVTVSS VL: ELVLTQSPGTLSLSPGERATLSCRASQNIYSSYLAWYQQKPGQAPRLLIYGASSRATGIPDRFSGSGSGTDFTLTISRLEPEDFAVYCCQQYESSPWTFGQGTKVEIK
A: -9

Others:
Q: Form field: reported % Change Compared to pH 7.4 + Calcium of 64G12 (antibody, V domains shown, hybridoma mAb) VH: EVQLLESGGGLVQPGGSLRLSCAASGFTFSSNAMSWVRQAPGKGLEWVSVISGSGGSTYYADSVKGRFTISRDNSKNTLYLQMNSLRAEDTALYYCAKRNYDDAFDIWGQGTMVTVSS VL: DIQMTQSPSSVSASVGDRVTITCRASQNITTWLAWYQQKPGKAPKLLISAASSLQSGVPSRFSGSGSGTDFTLTISSLQPEDFATYICQQANSFPFTFGPGTKLDIK
A: 10

Q: Same thing, different binder: 149D11 (antibody, V domains shown, hybridoma mAb) VH: EVQLLESGGGLVQPGGSLRLSCAASGFTFSSYAMSWVRQAPGKGLEWVSAISGRGGNTFYADSVKGRFTISRDNSKNTLYRQMNSLRAEDTAVYYCAKKDYDYVWGSPYFDYWGQGTLVTVSS VL: DIQMTQSPASVSASVGDRVTITCRASQNISNWLTWYQQKPGKAPKLLIYAASSLQSGVPSRFSGSGSGTDFTLSISSLQPEDFATYYCQQTDSFPFTFGPGTKVDVK
A: 3

Q: Same thing, different binder: 147D10 (antibody, V domains shown, hybridoma mAb) VH: EVQLLESGGGLVQPGGSLRLSCAASGFTFSSYAMSWVRQAPGKGLEWVSAISGRGGNTFYADSVKGRFTISRDNSKNTLYLQMNSLRAEDTAVYYCAKKDYDYVWGSPYFDYWGQGTLVTVSS VL: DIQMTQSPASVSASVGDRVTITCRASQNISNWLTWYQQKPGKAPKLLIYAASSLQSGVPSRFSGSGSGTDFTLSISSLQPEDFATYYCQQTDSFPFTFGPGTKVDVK
A: 4

Q: Same thing, different binder: 64B12 (antibody, V domains shown, hybridoma mAb) VH: QLQLQESGPGLVKPSETLSLTCTVSGVSISRSSYYWGWIRQPPGKGLEWIGSIYYSGSTSYNPSLKSRVTISVDTSKNQFSLKLSSVTAADTAVYYCARLDSGWSFDYWGQGTLVTVSS VL: DIQMTQSPSSLSASVGDRVTITCRASQDISNYLNWYQQKPGTAPNLLISDASILETGVPSTFSGSGSGTDFTFTISSLQPEDIATYYCQQSDNLPCSFGQGTKVEIK
A: 6

Q: Same thing, different binder: 192C10 (antibody, V domains shown, hybridoma mAb) VH: QVQLVESGGGVVQPGRSLRLSCASSGFTFRNYGMHWVRQAPGKGLKWVAVIWFDGSNDYYADSVKGRFTISRDNSKNTLSLQMNSLRAEDTAVYYCARDRSVGYDGLDVWGQGTTVTVSS VL: DIQMTQSPSSLSASVGDRVTITCRASQGIGKYLAWFQQKPGKAPKSLIYAASSLQSGVPSKFSGSGSGTDFTLTISSLQPDDFATYYCQRYDTYPFTFGPGTKVDFK
A: -6

Q: Same thing, different binder: 213B3 (antibody, V domains shown, hybridoma mAb) VH: QVQLVESGGGVVQPGRSLRLSCAASGFTFSSYGMHWVRQAPGKGLEWVAVIWYDGSNKNYADSVKGRFTISRDNSKNTLYLQMNSLRAEDTAVYYCARDRTVGYDGFDIWGQGTMVTVSS VL: DIQMTQSPSSLSASVGDRVTITCRASQGIGKYLAWFQQKPGKAPKSLISAASSVLSGVPSKFSGSGSGTDFTLTISSLQPEDFATYYCQKYDTYPFTFGPGTKVDIK
A: -7

Q: Same thing, different binder: 47C1 (antibody, V domains shown, hybridoma mAb) VH: QVQLVESGGGVVQPGRSLRLSCAASGFTFSDYGMHWVRQTPGKGLEWVAVIWYDGSNKYYADSVKGRFTISRDNSKNTLFLQMNSLRDEDTAVYYCARRYSRSWVGGMDVWGQGTTVTVSS VL: DIVMTQTPLSLSVTPGQPASISCTSSQSLLHSEGKTYLYWYLQKPGQPPQLLIYEVSNRFSGVPDRFSGSGSGTDFTLKISRVEAEDVGVFYCMQSIQLPWTFGQGTKVEIK
A: -1
